- Test Target: Recombinant TYK2 (Homo sapiens)
- Construct: purchased Carna Biosciences
- Sequence (P29597 whole entry): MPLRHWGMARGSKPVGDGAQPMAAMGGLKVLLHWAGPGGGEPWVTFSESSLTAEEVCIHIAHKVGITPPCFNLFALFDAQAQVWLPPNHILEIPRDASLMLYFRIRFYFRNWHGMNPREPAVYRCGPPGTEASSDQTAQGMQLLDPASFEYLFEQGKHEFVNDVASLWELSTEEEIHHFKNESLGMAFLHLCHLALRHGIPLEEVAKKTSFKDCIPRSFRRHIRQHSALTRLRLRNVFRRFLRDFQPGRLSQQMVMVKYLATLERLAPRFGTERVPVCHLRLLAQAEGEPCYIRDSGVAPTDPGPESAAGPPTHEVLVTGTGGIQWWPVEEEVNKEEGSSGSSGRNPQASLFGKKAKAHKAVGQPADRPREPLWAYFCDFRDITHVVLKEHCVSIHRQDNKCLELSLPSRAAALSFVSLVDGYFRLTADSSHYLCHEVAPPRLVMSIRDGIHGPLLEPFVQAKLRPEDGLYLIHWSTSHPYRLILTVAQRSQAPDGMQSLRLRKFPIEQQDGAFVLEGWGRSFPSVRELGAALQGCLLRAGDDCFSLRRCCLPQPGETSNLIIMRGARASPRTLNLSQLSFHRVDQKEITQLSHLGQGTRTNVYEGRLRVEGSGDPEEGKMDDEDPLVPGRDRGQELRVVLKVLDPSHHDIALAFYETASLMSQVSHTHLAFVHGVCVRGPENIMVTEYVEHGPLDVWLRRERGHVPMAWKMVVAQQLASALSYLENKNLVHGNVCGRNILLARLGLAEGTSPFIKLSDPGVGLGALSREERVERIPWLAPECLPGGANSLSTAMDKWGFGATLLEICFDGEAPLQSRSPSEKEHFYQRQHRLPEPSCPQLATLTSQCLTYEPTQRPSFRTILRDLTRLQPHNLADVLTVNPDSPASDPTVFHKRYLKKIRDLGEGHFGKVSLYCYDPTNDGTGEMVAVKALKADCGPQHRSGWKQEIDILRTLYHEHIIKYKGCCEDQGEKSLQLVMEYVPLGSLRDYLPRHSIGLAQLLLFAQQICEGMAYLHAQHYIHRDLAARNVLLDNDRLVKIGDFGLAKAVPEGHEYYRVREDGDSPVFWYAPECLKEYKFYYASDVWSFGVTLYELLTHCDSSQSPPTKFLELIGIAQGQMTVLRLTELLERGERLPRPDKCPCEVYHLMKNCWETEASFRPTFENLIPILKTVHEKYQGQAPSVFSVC
- Assay Explanation: JAK biochemical assay (LANCE Ultra TR-FRET), TYK2
- Measurement Conditions: recombinant TYK2, TR-FRET; read-out: Biochemical Assay (μM) TYK2
Recorded Metric: IC50

The cases that follow already have their IC50 on record.
>>> recorded_value("N#CCC(=O)NC(c1ccc(-n2cc(-c3ccnc4[nH]cnc34)cn2)nc1)C(F)(F)F (stereo not shown) [Example 1192]")
"> 1 µM"
>>> recorded_value("O=C(C1CC1)N1CCC(C(O)(c2ccc(-n3cc(-c4ccnc5[nH]cnc45)cn3)nc2)C(F)(F)F)CC1 (stereo not shown) [Example 1220]")
"> 0.5 µM"
>>> recorded_value("OC(c1ccc(-n2cc(-c3ccnc4[nH]cnc34)cn2)nc1)(C1CC1)C(F)(F)F (stereo not shown) [Example 1126]")
"> 1 µM"

Task: Recorded IC50 of CC(C)N1CCC([C@](O)(c2ccc(-n3cc(-c4ccnc5[nH]cnc45)cn3)cc2)C(F)(F)F)C1 (stereo partly shown) [Example 1251] , please.
Output: > 0.5 µM

Task: And for OC(CCN1CCOCC1)(c1ccc(-n2cc(-c3ccnc4[nH]cnc34)cn2)nc1)C(F)(F)F (stereo not shown) [Example 1230] ?
Output: > 0.5 µM

Task: And for CC(CC#N)NC(=O)n1cc(-c2ccnc3[nH]c(=O)[nH]c23)cn1 (stereo not shown) [Example 1053] ?
Output: > 1 µM

Task: And for CS(=O)(=O)CCC(c1ccc(-n2cc(-c3ccnc4[nH]c(=O)[nH]c34)cn2)nc1)C(F)(F)F (stereo not shown) [Example 1189] ?
Output: > 1 µM

Task: And for O=S(=O)(CC[C@@H](c1ccc(-n2cc(-c3ccnc4[nH]cnc34)cn2)nc1)C(F)(F)F)C1CC1 [Example 1216] ?
Output: > 0.5 µM

Task: And for N#CCC(=O)NCCC(c1ccc(-n2cc(-c3ccnc4[nH]cnc34)cn2)nc1)C(F)(F)F (stereo not shown) [Example 1248] ?
Output: > 0.5 µM

Task: And for OC(c1ccnc(-n2cc(-c3ccnc4[nH]cnc34)cn2)c1)C(F)(F)F (stereo not shown) [Example 1172] ?
Output: > 1 µM

====

- Test Target: Recombinant JAK3 (Homo sapiens, UniProt P52333)
- Construct: purchased Carna Biosciences
- Sequence (P52333 whole entry): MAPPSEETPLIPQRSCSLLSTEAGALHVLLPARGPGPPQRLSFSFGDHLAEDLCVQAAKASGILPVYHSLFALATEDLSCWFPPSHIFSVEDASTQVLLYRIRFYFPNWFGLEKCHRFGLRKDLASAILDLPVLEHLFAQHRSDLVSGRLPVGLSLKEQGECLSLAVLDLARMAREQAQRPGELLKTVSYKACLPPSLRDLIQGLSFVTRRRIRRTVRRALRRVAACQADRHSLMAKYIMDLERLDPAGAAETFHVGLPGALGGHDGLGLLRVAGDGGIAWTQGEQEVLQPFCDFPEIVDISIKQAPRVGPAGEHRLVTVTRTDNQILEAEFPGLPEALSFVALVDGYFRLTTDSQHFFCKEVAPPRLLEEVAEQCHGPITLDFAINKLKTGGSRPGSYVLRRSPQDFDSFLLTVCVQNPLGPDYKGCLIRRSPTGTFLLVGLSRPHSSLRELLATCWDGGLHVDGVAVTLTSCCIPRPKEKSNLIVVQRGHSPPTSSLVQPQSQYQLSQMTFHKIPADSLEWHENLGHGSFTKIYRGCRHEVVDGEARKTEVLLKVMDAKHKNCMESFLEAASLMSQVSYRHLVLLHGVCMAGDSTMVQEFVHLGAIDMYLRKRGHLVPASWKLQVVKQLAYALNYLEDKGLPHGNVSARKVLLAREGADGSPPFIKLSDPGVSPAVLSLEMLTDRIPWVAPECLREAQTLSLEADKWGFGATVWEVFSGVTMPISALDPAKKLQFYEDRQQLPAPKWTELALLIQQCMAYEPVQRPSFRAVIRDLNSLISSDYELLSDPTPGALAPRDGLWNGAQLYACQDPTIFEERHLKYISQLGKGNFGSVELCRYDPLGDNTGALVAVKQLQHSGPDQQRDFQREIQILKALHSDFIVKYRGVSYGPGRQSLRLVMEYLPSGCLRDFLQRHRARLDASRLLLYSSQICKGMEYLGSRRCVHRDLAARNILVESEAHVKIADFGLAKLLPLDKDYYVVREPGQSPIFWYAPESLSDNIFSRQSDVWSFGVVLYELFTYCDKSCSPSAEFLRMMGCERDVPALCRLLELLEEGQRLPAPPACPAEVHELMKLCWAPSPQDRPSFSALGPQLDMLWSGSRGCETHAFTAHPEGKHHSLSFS
- Assay Explanation: JAK biochemical assay (LANCE Ultra TR-FRET), JAK3
- Measurement Conditions: recombinant JAK3, TR-FRET; read-out: Biochemical Assay (μM) JAK3
- Description: Recombinant JAK1, JAK2, JAK3 and TYK2 (Carna Biosciences) were used to develop biochemical assays in 50 mM HEPES pH 7.5, 1 mM EGTA, 10 mM MgCl2, 2 mM DTT and 0.01% Tween-20. […] The intensity of the light emission is proportional to the level of ULight substrate phosphorylation. Compounds which interfere with JAK enzyme activity show a lesser substrate phosphorylation and values are projected in terms of % inhibition in comparison to vehicle control.
Recorded Metric: IC50

The cases that follow already have their IC50 on record.
>>> recorded_value("N#CC1CN(C(=O)c2ccc(-n3cc(-c4ccnc5[nH]cnc45)cn3)nc2)C1")
"> 1 µM"
>>> recorded_value("N#CCC(=O)N1CC(C(O)(c2ccc(-n3cc(-c4ccnc5[nH]cnc45)cn3)nc2)C(F)(F)F)C1 (stereo not drawn)")
"> 0.003 µM"
>>> recorded_value("CS(=O)(=O)CCC(c1ccc(-n2cc(-c3ccnc4[nH]c(=O)[nH]c34)cn2)nc1)C(F)(F)F (stereo not drawn) [Example 1147]")
"> 1 µM"

Task: Item: O=S(=O)(CC[C@@H](c1ccc(-n2cc(-c3ccnc4[nH]cnc34)cn2)nc1)C(F)(F)F)C1CC1 Test system: Recombinant JAK3 (Homo sapiens, UniProt P52333) Read-out: IC50 Value: ?
Output: < 0.1 µM

Task: And for N#CCOC(c1ccc(-n2cc(-c3ccnc4[nH]cnc34)cn2)nc1)C(F)(F)F (stereo not drawn) ?
Output: < 0.1 µM

Task: And for N#CC1CN(C(=O)CNC(=O)n2cc(-c3ccnc4[nH]c(=O)[nH]c34)cn2)C1 ?
Output: > 10 µM

Task: And for CC(NC(=O)N1CCN(c2ccnc3[nH]c(=O)[nH]c23)CC1)C(F)(F)F (stereo not drawn) ?
Output: > 1 µM

Task: And for O=C(NC1CCS(=O)(=O)CC1)N1CCN(c2ccnc3[nH]c(=O)[nH]c23)CC1 ?
Output: > 10 µM

Task: And for N#CC(NC(=O)n1cc(-c2ccnc3[nH]cnc23)cn1)c1ccccc1 (stereo not drawn) ?
Output: > 0.5 µM

Task: And for N#CCC(NC(=O)n1cc(-c2ccnc3[nH]c(=O)[nH]c23)cn1)C1CC1 (stereo not drawn) ?
Output: > 1 µM

Task: And for CC(NC(=O)n1cc(-c2ccnc3[nH]c(=O)[nH]c23)cn1)C(F)(F)F (stereo not drawn) ?
Output: 0.43 µM

Task: And for CN1CCC(C(O)c2ccc(-n3cc(-c4ccnc5[nH]cnc45)cn3)nc2)CC1 (stereo not drawn) ?
Output: > 1 µM

====

- Test Target: Recombinant JAK1 (Homo sapiens, UniProt P23458)
- Construct: purchased Carna Biosciences
- Sequence (P23458 whole entry): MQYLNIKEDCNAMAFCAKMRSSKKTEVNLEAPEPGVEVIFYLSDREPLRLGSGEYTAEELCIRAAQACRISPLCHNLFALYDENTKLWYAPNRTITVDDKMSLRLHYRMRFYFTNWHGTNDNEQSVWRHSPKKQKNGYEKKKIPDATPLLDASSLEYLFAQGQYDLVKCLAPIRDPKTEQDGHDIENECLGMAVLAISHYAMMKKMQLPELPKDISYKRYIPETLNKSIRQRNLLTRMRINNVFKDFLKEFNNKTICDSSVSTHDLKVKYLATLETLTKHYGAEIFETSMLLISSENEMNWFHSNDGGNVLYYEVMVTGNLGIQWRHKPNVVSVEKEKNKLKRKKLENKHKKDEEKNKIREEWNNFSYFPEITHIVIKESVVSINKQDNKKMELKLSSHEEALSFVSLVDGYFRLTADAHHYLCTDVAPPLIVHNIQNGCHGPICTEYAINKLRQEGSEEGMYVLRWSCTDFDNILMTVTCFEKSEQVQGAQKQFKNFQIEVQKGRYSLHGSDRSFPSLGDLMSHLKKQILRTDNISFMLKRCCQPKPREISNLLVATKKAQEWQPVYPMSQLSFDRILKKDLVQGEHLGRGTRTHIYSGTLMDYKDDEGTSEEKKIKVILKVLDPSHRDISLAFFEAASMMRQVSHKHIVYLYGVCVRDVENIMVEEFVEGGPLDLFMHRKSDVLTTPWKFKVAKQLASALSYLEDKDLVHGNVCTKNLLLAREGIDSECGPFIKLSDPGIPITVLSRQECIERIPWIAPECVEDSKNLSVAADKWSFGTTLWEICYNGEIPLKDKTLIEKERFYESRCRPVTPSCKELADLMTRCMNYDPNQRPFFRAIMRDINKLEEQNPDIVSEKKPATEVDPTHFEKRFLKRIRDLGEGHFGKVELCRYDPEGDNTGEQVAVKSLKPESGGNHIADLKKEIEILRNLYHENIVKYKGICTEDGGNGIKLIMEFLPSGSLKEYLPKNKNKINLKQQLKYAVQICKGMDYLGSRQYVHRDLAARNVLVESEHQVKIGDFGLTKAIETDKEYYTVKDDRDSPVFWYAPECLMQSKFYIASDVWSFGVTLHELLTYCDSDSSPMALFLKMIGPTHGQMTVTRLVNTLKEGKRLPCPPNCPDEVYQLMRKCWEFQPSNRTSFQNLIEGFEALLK
- Assay Explanation: JAK biochemical assay (LANCE Ultra TR-FRET), JAK1
- Measurement Conditions: recombinant JAK1, TR-FRET; read-out: Biochemical Assay (μM) JAK1
A collection of compounds and their measured IC50

>>> recorded_value("CS(=O)(=O)CC(c1ccc(-n2cc(-c3ccnc4[nH]cnc34)cn2)nc1)C(F)(F)F (centres unmarked)")
"< 0.1 µM"

Task: Recorded IC50 of COC(c1ccc(-n2cc(-c3ccnc4[nH]cnc34)cn2)nc1)C(F)(F)F (centres unmarked) , please.
Output: 0.03 µM

Task: And for N#CCc1ccc(-n2cc(-c3ccnc4[nH]cnc34)cn2)cc1F ?
Output: > 1 µM

Task: And for COCCC(c1ccc(-n2cc(-c3ccnc4[nH]cnc34)cn2)nc1)C(F)(F)F (centres unmarked) ?
Output: > 0.1 µM

Task: And for CCn1c(=O)[nH]c2nccc(-c3cnn(C(=O)NCC(F)(F)F)c3)c21 ?
Output: > 10 µM

Task: And for O=S(=O)(CC1CC1)CC(c1ccc(-n2cc(-c3ccnc4[nH]cnc34)cn2)nc1)C(F)(F)F (centres unmarked) ?
Output: < 0.1 µM

Task: And for O=C(NCC(F)(F)F)C(c1ccc(-n2cc(-c3ccnc4[nH]cnc34)cn2)nc1)C1CC1 (centres unmarked) ?
Output: 0.096 µM

Task: And for CS(=O)(=O)CC[C@H](c1ccc(-n2cc(-c3ccnc4[nH]cnc34)cn2)nc1)C(F)(F)F ?
Output: 0.015 µM

Task: And for CCC(c1ccc(-n2cc(-c3ccnc4[nH]cnc34)cn2)nc1)C(F)(F)F (centres unmarked) ?
Output: > 0.1 µM

Task: And for N#CC1CN(CCC(c2ccc(-n3cc(-c4ccnc5[nH]cnc45)cn3)nc2)C(F)(F)F)C1 (centres unmarked) ?
Output: < 0.1 µM

Task: And for O=C(NCC(F)(F)F)Nc1ccc(-c2ccnc3[nH]c(=O)[nH]c23)cc1 ?
Output: 0.021 µM

====

A collection of compounds and their measured IC50
- Test Target: Recombinant TYK2 (Homo sapiens)
- Construct: purchased Carna Biosciences
- Assay Explanation: JAK biochemical assay (LANCE Ultra TR-FRET), TYK2
- Measurement Conditions: recombinant TYK2, TR-FRET; read-out: Biochemical Assay (μM) TYK2

>>> recorded_value("CCCS(=O)(=O)NC1CCN(C(=O)n2cc(-c3ccnc4[nH]cnc34)cn2)C1 (stereo not drawn)")
"> 1 µM"
>>> recorded_value("CC(C)NCC[C@H](c1ccc(-n2cc(-c3ccnc4[nH]cnc34)cn2)nc1)C(F)(F)F")
"> 0.5 µM"
>>> recorded_value("CC(NC(=O)n1cc(-c2ccnc3[nH]c(=O)[nH]c23)cn1)C(F)(F)F (stereo not drawn)")
"0.093 µM"

Task: Item: CC(C)S(=O)(=O)CCC(c1ccc(-n2cc(-c3ccnc4[nH]cnc34)cn2)nc1)C(F)(F)F (stereo not drawn) Test system: Recombinant TYK2 (Homo sapiens) Read-out: IC50 Value: ?
Output: > 1 µM

Task: And for CC(C)C(C#N)NC(=O)n1cc(-c2ccnc3[nH]c(=O)[nH]c23)cn1 (stereo not drawn) ?
Output: < 0.5 µM

Task: And for OCC(Cc1ccc(-n2cc(-c3ccnc4[nH]cnc34)cn2)nc1)C(F)(F)F (stereo not drawn) ?
Output: > 1 µM

Task: And for O=S1(=O)CCN(Cc2ccc(-n3cc(-c4ccnc5[nH]cnc45)cn3)nc2)CC1 ?
Output: > 10 µM

Task: And for c1cc(-c2cnn(-c3ccc(CC4COC4)cn3)c2)c2nc[nH]c2n1 ?
Output: > 10 µM

Task: And for O=C(NCC(F)(F)F)n1cc(-c2ccnc3[nH]c(-c4ccccc4)nc23)cn1 ?
Output: < 0.5 µM

Task: And for CNS(=O)(=O)CCC(c1ccc(-n2cc(-c3ccnc4[nH]cnc34)cn2)nc1)C(F)(F)F (stereo not drawn) ?
Output: > 1 µM

Task: And for FC(F)(F)C(CCN1CCOCC1)c1ccc(-n2cc(-c3ccnc4[nH]cnc34)cn2)nc1 (stereo not drawn) ?
Output: > 1 µM

Task: And for N#CC1CCCCC1NC(=O)n1cc(-c2ccnc3[nH]cnc23)cn1 (stereo not drawn) ?
Output: > 0.5 µM
